# experimental_system: human P2X3 receptor (Homo sapiens)
# Sequence (P56373 1-397): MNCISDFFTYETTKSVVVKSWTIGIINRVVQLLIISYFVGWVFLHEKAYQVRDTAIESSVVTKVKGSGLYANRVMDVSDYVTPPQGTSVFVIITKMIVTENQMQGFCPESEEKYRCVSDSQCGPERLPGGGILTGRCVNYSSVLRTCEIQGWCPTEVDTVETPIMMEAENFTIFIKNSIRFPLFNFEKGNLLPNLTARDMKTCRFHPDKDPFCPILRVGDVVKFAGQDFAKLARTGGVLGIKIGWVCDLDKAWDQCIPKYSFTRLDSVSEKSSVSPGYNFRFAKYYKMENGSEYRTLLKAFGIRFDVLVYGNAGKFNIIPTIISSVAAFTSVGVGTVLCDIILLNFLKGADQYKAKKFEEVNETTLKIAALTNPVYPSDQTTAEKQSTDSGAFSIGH
# assay_info: Intracellular calcium measurement, antagonist activity at human P2X3 receptors (hP2X3 1321N1), Fluo8
# Format: cell-based
# Design: expressed in transfected cells; host or cells: human astrocytoma 1321N1 (1312N1 [sic])
# recorded_conditions: column 3); 1321N1 cells, human P2X3, Fluo8, agonist ATP at EC50
property_measured: IC50 (nM)

Illustrative cases are given below, each with its answer.
molecule	IC50 (nM)
CC[C@H](C)N1Cc2c(n(CC(=O)Nc3ccc(C)cn3)c3cc(C(F)(F)F)nn3c2=O)C1=O [Example 21]	233
CCc1cc2n(CC(=O)Nc3ccc(C)cn3)c3c(c(=O)n2n1)CN(CC1CCOC1)C3=O (stereo not drawn) [Example 61]	1930
CCc1cc2n(CC(=O)Nc3ccc(F)cn3)c3c(c(=O)n2n1)CN(C[C@@H]1COCCN1)C3=O [Example 248]	740
CCc1cc2n(CC(=O)Nc3ccc(F)cn3)c3c(c(=O)n2n1)CN(C[C@H]1CCCN1)C3=O [Example 233]	1060

[a] Cc1ccc(NC(=O)Cn2c3c(c(=O)n4nc(C(C)(C)C)cc24)CN(C(C)C)C3=O)nc1 [Example 4]
[b] Cc1ccc(NC(=O)Cn2c3c(c(=O)n4nc(C(F)(F)F)cc24)CN(C(C)C)C3=O)nc1 [Example 30]
[c] CCc1cc2n(CC(=O)Nc3ccc(F)cn3)c3c(c(=O)n2n1)CN(C(COC)COC)C3=O [Example 99]
[d] CCc1cc2n(CC(=O)Nc3ccc(F)cn3)c3c(c(=O)n2n1)CN(C1CCN(S(C)(=O)=O)C1)C3=O (stereo not drawn) [Example 272]
Please order the records by their reported IC50, lowest number first. Field: ranking. Enter the labels in the order requested.
c, a, b, d
(c: 15 nM, a: 177 nM, b: 393 nM, d: 610 nM)

[a] CC(C)c1cc2n(CC(=O)Nc3ccc(F)cn3)c3c(c(=O)n2n1)CN(C(C)C)C3=O [Example 7]
[b] COC[C@H](C)N1Cc2c(n(CC(=O)Nc3ccc(F)cn3)c3cc(C(C)C)nn3c2=O)C1=O [Example 39]
Field: entry with larger IC50 (options a / b ). Output the label that corresponds to your choice.
a
(a: 48 nM, b: 25 nM)

[I] CC(C)N1Cc2c(n(CC(=O)Nc3ccc(F)cn3)c3cc(NC(=O)C(F)F)nn3c2=O)C1=O [Example 283]
[II] COCCN1Cc2c(n(CC(=O)Nc3ccc(F)cn3)c3cc(C(C)(C)C)nn3c2=O)C1=O [Example 49]
[III] Cc1cc(C)c(-c2cc3n(CC(=O)Nc4ccc(F)cn4)c4c(c(=O)n3n2)CN(C(C)C)C4=O)cn1 [Example 156]
[IV] CC(C)N1Cc2c(n(CC(=O)Nc3ccc(F)cn3)c3cc(C(=O)N(C)C)nn3c2=O)C1=O [Example 182]
Sort by IC50, descending. Field: ranking. Enter the labels in the order requested.
I, IV, II, III
